Test target: HLA-A*69:01
Assay name: IEDB peptide-MHC binding, purified MHC/direct/fluorescence; filed as Kd, often an IC50 or EC50 that approximates it; bounds were set here for any values at or beyond the usual limits of such assays
Assay setup: source organism: Rickettsia prowazekii
pKd: −log10 of the molar value.
Measured metric: pKd

Task item: Given `RRNRKALWL` , state its recorded pKd.
Reply: ≤ 4.70

----------
Test target: HLA-B*15:09
Assay name: IEDB peptide-MHC binding, purified MHC/direct/fluorescence; filed as Kd, often an IC50 or EC50 that approximates it; bounds were set here for any values at or beyond the usual limits of such assays
Assay setup: source organism: Mycobacterium tuberculosis str. Haarlem
Measured metric: pKd
Answers are plain numbers, as −log10 of the molar value.

Task item: Requested read-out pKd, target or system HLA-B*15:09, entry `YPARVKCAL`
Reply: 5.96
